The measurements presented in this section are drawn from PubChem BioAssay (NCI).

Tested on: MDA-MB-231 breast
assay_protocol: NCI-60 one-dose screen, 48 h (100 = growth as untreated, 0 = no growth, -100 = all killed)
reported_conditions: 10 µM unless noted
About 83,000 compounds went through this panel and 20% of them were active in at least one assay; those are over-represented in the sample as a whole.
Reported growth by item:
Give the number; % is assumed, so skip it.

{"columns": ["compound", "quantity_unit", "measured"],
 "data": [
  ["Cc1ccc(C(=O)Nc2cc(-c3ccncc3)cc(C(F)(F)F)c2)cc1C#Cc1cnc2cccnn12", "%", 23.7]
]}

Summary for this compound, COc1cc(C2CC(c3ccc(F)cc3)=Nc3c(N)nc(N)nc3N2)ccc1Oc1nc(Nc2ccc(F)cc2)nc(N(C)C)n1 (centres undefined) : growth is 44.2

Summary for this compound, O=C(N/N=C/c1c[nH]c2ccccc12)Nc1ccccc1Cl : growth is 16.5

Summary for this compound, Cc1ccc(O)cc1Nc1nc(SCCN2CCOCC2)nc2c1cnn2CC(Cl)c1ccc(Br)cc1 (centres undefined) : growth is -30.6

Summary for this compound, COc1ccc(NC(=O)Cn2c(/C=C/c3cccc(OC)c3)nc3ccccc3c2=O)cc1 : growth is -30.3

Summary for this compound, COc1sc(/C=N/NC(=O)c2[nH]c3ccc(Br)cc3c2-c2ccccc2)cc1Cl : growth is -68
